Test system: NCI-H23 lung
procedureText: NCI-60 one-dose screen, 48 h
conditionSet: 10 µM
The panel holds about 83,000 compounds, 20% with a hit somewhere; the sample as a whole holds those more often. Active and inactive are the calls of the source. Rule for the calls: active = growth percent below 10; inactive = the rest.
Lab note: assign the record to one of active, inactive

[ask] Write down the call the test reported for this compound. Item: Cc1cc(Cl)ccc1Nc1nc(C(F)(F)F)ccc1C(=O)N/N=C/c1ccccc1Cl
[reply] inactive

[ask] Would you mind doing CCOC(=O)c1ccc(N(C=O)CCC(=O)CCl)cc1 as well?
[reply] inactive

[ask] Would you mind doing C[C@@H]1N=C(c2ccc(Br)cc2)Nc2nc3ccccn3c2C1=O as well?
[reply] inactive

---

Tested on: PC-3 prostate
procedureText: NCI-60 one-dose screen, 48 h (100 = growth as untreated, 0 = no growth, -100 = all killed)
conditionSet: 10 µM
About 83,000 compounds went through this panel and 20% of them were active in at least one assay; those are over-represented in the sample as a whole.
measurementKind: growth (%)
Report the figure in % without appending any unit label.

Cc1nc2scc(-c3ccc(Cl)cc3)n2c(=O)c1CCN1CCOCC1 = 87.5

We now examine a further molecule.
[ask] Query growth on PC-3 prostate for Nc1ccc(C2=CC(c3ccc(Cl)cc3)N3C=CSC3=N2)cc1 (configuration not stated)
[reply] -28.1

---

Each entry below carries its reported growth.
Tested on: RPMI-8226 leukemia
procedureText: NCI-60 one-dose screen, 48 h (100 = growth as untreated, 0 = no growth, -100 = all killed)
conditionSet: 10 µM
About 83,000 compounds went through this panel and 20% of them were active in at least one assay; those are over-represented in the sample as a whole.
Report the figure in % without appending any unit label.

Record excerpt, results attached:
C[n+]1c(/C=C/c2c[nH]c3ccccc23)ccc2ccccc21 = 40.7
O=[N+]([O-])c1ccc(-c2nc(Cl)c3c(n2)CCCC3)o1 = 85.3
Nc1ccc2c(c1)Cc1cc(N)c(Cl)cc1-2 = 96.8

[ask] I am curious: what growth value has been reported for CCOC(=O)c1sc(Nc2ncccn2)nc1-c1ccccn1 ?
[reply] 92

[ask] Would you mind doing COc1ccc(-c2csc(-c3cc(Cl)cc(Cl)c3Cl)n2)cc1 as well?
[reply] 93.5

[ask] Would you mind doing CCc1ccc(-c2nnc(COc3ccc(-c4nc5ccc(C)cc5[nH]4)cc3OC)o2)cc1 as well?
[reply] -6.63

[ask] Would you mind doing COc1ccccc1CNCCCN1C(=O)c2ccc3c4c(ccc(c24)C1=O)C(=O)N(CCCNCCNCCCN)C3=O as well?
[reply] 60.8

[ask] Would you mind doing C=CCNCCCN1C(=O)c2ccc3c4c(ccc(c24)C1=O)C(=O)N(CCCNCC=C)C3=O as well?
[reply] 11.3

[ask] Would you mind doing O=C(NNc1nc(N2CCCC2)nc(N2CCCC2)n1)c1ccccc1 as well?
[reply] 106

[ask] Would you mind doing COCc1cc2c(cc1Br)OCO2 as well?
[reply] 95.1

[ask] Would you mind doing O=C1CC[C@@H](C(=O)N[C@H]2CSSC[C@@H](C(=O)N/C=C/c3ccc(O)cc3)NC(=O)[C@H](Cc3ccccc3)NC(=O)[C@@H]3CCCN3C(=O)[C@@H]3CCCN3C2=O)N1 as well?
[reply] 96.1

[ask] Would you mind doing COc1ccc(-c2nnc(SC/C(=N\O)c3ccccc3)o2)cc1 as well?
[reply] 88.8

[ask] Would you mind doing COc1cccc2c1O/C(=C\c1ncc([N+](=O)[O-])n1C)C2=O as well?
[reply] -8.69

[ask] Would you mind doing COc1cc(Cn2c(-c3ccccc3)cc3c2-c2oncc2CC3)cc(OC)c1 as well?
[reply] 34.8

[ask] Would you mind doing CC(C)CCN(CCCNc1c2c(nc3cc(Cl)ccc13)CCCC2)CCC(C)C as well?
[reply] 39.5

Reference source: PubChem BioAssay (NCI)
